All figures here come from the supplement of paper PMC10567573.

B1: ANKRD9 (parent)
chain: VGAAGSARQELLGDRPRWQRLLGE

Variants of: B1
Measurement Description: protein stability index of a GFP-peptide fusion (GPS, HEK-293T) (PSI 1-6); higher = more stable;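 note: lentivirally expressed fusions sorted by FACS into six bins by GFP to DsRed ratio, PSI derived from sequencing read proportions per bin multiplied by bin number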
Protocol Conditions: c terminus: a fixed tail appended
Reported Endpoint: protein stability index

variant_annotation=P16L readout_value=3.12
variant_annotation=D14Y readout_value=2.86
variant_annotation=R17T readout_value=3.43
variant_annotation=R15K readout_value=3.06
variant_annotation=R15L readout_value=2.51
variant_annotation=W18S readout_value=4.2
variant_annotation=R17P readout_value=4.29
variant_annotation=G23K readout_value=3.19
variant_annotation=A4D readout_value=3.35
